From: patent US9737535B2

System: MDA-MB-157
assay.protocol: Anti-proliferation assay (ATPLite), Chalice synergy score
Format: cell-based
measurement.parameters: Compound 1 in combination with second active agent, mean self-cross + 2σ threshold 4.68
I'd appreciate it if you could supply Synergy score values for the items below.
// response body must contain only the number

// query Synergy score value for entry `CNC(=O)c1ccc(-c2cnc3ncc(Cc4ccc5ncccc5c4)n3n2)cc1F` 0.97

Entry to check: `c1ccc2c(CCNc3ccc(Nc4ccncc4)cc3)c[nH]c2c1` 2.53

Entry to check: `Clc1ccc(C2(c3ccc(-c4cn[nH]c4)cc3)CCNCC2)cc1` 3.19

Entry to check: `C=CC(=O)Nc1ccc2ncnc(Nc3ccc(OCc4cccc(F)c4)c(Cl)c3)c2c1` 3.02

Entry to check: `C/C=C1\NC(=O)[C@H]2CSSCC/C=C/[C@H](CC(=O)N[C@H](C(C)C)C(=O)N2)OC(=O)[C@H](C(C)C)NC1=O` 5.71

Entry to check: `O=C(Nc1cccc(Nc2ncc(Br)c(NCCc3c[nH]cn3)n2)c1)N1CCCC1` 6.65

Entry to check: `CS(=O)(=O)c1ccc(C(=O)Nc2ccc(Cl)c(-c3ccccn3)c2)c(Cl)c1` 0.77

Entry to check: `COc1ccc(-c2ccc3c(N4CCOC[C@@H]4C)nc(N4CCOC[C@@H]4C)nc3n2)cc1CO` 1.04

====

I'd appreciate it if you could supply Synergy score values for the items below.
Tested on: MDA-MB-436
assay.protocol: Anti-proliferation assay (ATPLite), Chalice synergy score
Format: cell-based
measurement.parameters: Compound 1 in combination with second active agent, mean self-cross + 2σ threshold 1.91
Where a name gives a salt, the structure may show the parent alone.
// response body must contain only the number

// query Synergy score value for entry O=C(NC(NC(=S)Nc1ccc(F)c([N+](=O)[O-])c1)C(Cl)(Cl)Cl)C(c1ccccc1)c1ccccc1 (stereo not shown) 0.84

Entry to check: `CO[C@H]1/C=C\C=C(/C)C(=O)NC2=CC(=O)C(NCCN(C)C)=C(C[C@@H](C)C[C@H](OC)[C@H](O)[C@@H](C)/C=C(\C)[C@@H]1OC(N)=O)C2=O` 0.61

Entry to check: `COc1c(C)cnc(Cn2cnc3c(Cl)nc(N)nc32)c1C` 0.33

Entry to check: `Nc1ccccc1NC(=O)c1ccc(CNC(=O)OCc2cccnc2)cc1` 7.83

Entry to check: `O=C(NOC[C@H](O)CO)c1ccc(F)c(F)c1Nc1ccc(I)cc1F` 4.20

Entry to check: `O=C(/C=C/c1cccnc1)NCCCCC1CCN(C(=O)c2ccccc2)CC1` 0.97

Entry to check: `Clc1ccc(C2(c3ccc(-c4cn[nH]c4)cc3)CCNCC2)cc1` 1.95

Entry to check: `COc1ccc(Cl)c(Nc2nc3ccccc3nc2NS(=O)(=O)c2cccc(NC(=O)C(C)(C)N)c2)c1` 0.67

Entry to check: `C=CC(=O)N1CCC[C@@H](n2nc(-c3ccc(Oc4ccccc4)cc3)c3c(N)ncnc32)C1` 0.07

Entry to check: `CC(C)(C)Cn1c(N)nc2ccc(-c3[nH]c(C(C)(C)C)nc3-c3ccc(F)cc3)nc21` 1.32

Entry to check: `O=C(Nc1cccc(Nc2ncc(Br)c(NCCc3c[nH]cn3)n2)c1)N1CCCC1` 2.50

Entry to check: `NC1(c2ccc(-c3nc4ccn5c(=O)[nH]nc5c4cc3-c3ccccc3)cc2)CCC1` 5.55

Entry to check: `COc1cc2nccc(Oc3ccc(NC(=O)C4(C(=O)Nc5ccc(F)cc5)CC4)cc3)c2cc1OC` 0.90

Entry to check: `NC(=O)[C@@H](CCC(F)(F)F)N(Cc1ccc(-c2ncon2)cc1F)S(=O)(=O)c1ccc(Cl)cc1` 0.86

Entry to check: CN(C)CCCn1cc(C2=C(c3c[nH]c4ccccc34)C(=O)NC2=O)c2ccccc21 [GF 109203X] 2.60

Entry to check: COc1cccc2c1C(=O)c1c(O)c3c(c(O)c1C2=O)C[C@@](O)(C(=O)CO)C[C@@H]3O[C@H]1C[C@H](N)[C@H](O)[C@H](C)O1 [Doxorubicin Hcl, Doxorubicin HCl] 3.89

====

Test system: MDA-MB-157
assay.protocol: Anti-proliferation assay (ATPLite), Chalice synergy score
Format: cell-based
measurement.parameters: Compound 1 in combination with second active agent, mean self-cross + 2σ threshold 4.68
Structures can show the parent of a compound that is named as a salt.
// classify: if (Synergy score < 5) Criterion met else Criterion not met

I wonder whether O=C(Nc1cc(C(F)(F)F)cc(C(F)(F)F)c1)c1cc(Cl)ccc1O [IMD-0354] has Synergy score below 5. Can you tell? Criterion met

Entry to check: OCCn1cc(-c2ccc3c(c2)CC/C3=N\O)c(-c2ccncc2)n1 [GDC-0879] Criterion met

Entry to check: OCCn1cc(-c2cnc3nnn(Cc4ccc5ncccc5c4)c3n2)cn1 [PF-04217903] Criterion met

Entry to check: CCc1c2c(nc3ccc(OC(=O)N4CCC(N5CCCCC5)CC4)cc13)-c1cc3c(c(=O)n1C2)COC(=O)[C@]3(O)CC [Irinotecan Hydrochloride] Criterion not met

Entry to check: C[C@@H](Oc1cc(-c2cnn(C3CCNCC3)c2)cnc1N)c1c(Cl)ccc(F)c1Cl [Crizotinib] Criterion met

Entry to check: O=C(NC1CCNCC1)c1[nH]ncc1NC(=O)c1c(Cl)cccc1Cl [AT7519] Criterion not met

Entry to check: CCN(CCO)CCCOc1ccc2c(Nc3cc(CC(=O)Nc4cccc(F)c4)[nH]n3)ncnc2c1 [AZD1152-HQPA(Barasertib)] Criterion met

Entry to check: CC[C@@]1(O)C(=O)OCc2c1cc1n(c2=O)Cc2cc3cc(O)ccc3nc2-1 [10-Hydroxycamptothecin] Criterion not met

====

Test system: MDA-MB-436
assay.protocol: Anti-proliferation assay (ATPLite), Chalice synergy score
Format: cell-based
measurement.parameters: Compound 1 in combination with second active agent, mean self-cross + 2σ threshold 1.91
// classify: if (Synergy score < 2) TRUE else FALSE

I wonder whether CCc1cc(Nc2nccc(-c3c(-c4ccc(OC)c(C(=O)Nc5c(F)cccc5F)c4)nc4ccccn34)n2)c(OC)cc1N1CCC(N2CCN(S(C)(=O)=O)CC2)CC1 [GSK1904529A] has Synergy score below 2. Can you tell? TRUE

Entry to check: `COc1ccc(C2=N[C@@H](c3ccc(Cl)cc3)[C@@H](c3ccc(Cl)cc3)N2C(=O)N2CCNC(=O)C2)c(OC(C)C)c1` TRUE

Entry to check: `COc1cc2c(NC3CCN(C4CCCCC4)CC3)nc(N3CCCN(C(C)C)CC3)nc2cc1OCCCN1CCCCC1` TRUE

Entry to check: `CC(C)C[C@H](NC(=O)CNC(=O)c1cc(Cl)ccc1Cl)B1OC(=O)C(CC(=O)O)(CC(=O)O)O1` FALSE

====

Test system: Hs-578-T
assay.protocol: Anti-proliferation assay (ATPLite), Chalice synergy score
Type: cell-based
measurement.parameters: Compound 1 in combination with second active agent, mean self-cross + 2σ threshold 4.09
Where a name gives a salt, the structure may show the parent alone.
// classify: if (Synergy score < 4) y else n

I wonder whether Nc1ccn([C@@H]2O[C@H](CO)[C@@H](O)C2(F)F)c(=O)n1 [Gemcitabine Hydrochloride] has Synergy score below 4. Can you tell? y

Entry to check: `NC(=O)[C@@H](CCC(F)(F)F)N(Cc1ccc(-c2ncon2)cc1F)S(=O)(=O)c1ccc(Cl)cc1` y

Entry to check: CN(C)CCCn1cc(C2=C(c3c[nH]c4ccccc34)C(=O)NC2=O)c2ccccc21 [GF 109203X] y

Entry to check: `C=CC(=O)Nc1ccc2ncnc(Nc3ccc(OCc4cccc(F)c4)c(Cl)c3)c2c1` n

Entry to check: `CS(=O)(=O)c1ccc(C(=O)Nc2ccc(Cl)c(-c3ccccn3)c2)c(Cl)c1` y

Entry to check: `C=CCn1c(=O)c2cnc(Nc3ccc(N4CCN(C)CC4)cc3)nc2n1-c1cccc(C(C)(C)O)n1` n

Entry to check: COc1cccc2c1C(=O)c1c(O)c3c(c(O)c1C2=O)C[C@@](O)(C(=O)CO)C[C@@H]3O[C@H]1C[C@H](N)[C@H](O)[C@H](C)O1 [Doxorubicin Hcl, Doxorubicin HCl] n

Entry to check: `CO[C@H]1/C=C\C=C(/C)C(=O)NC2=CC(=O)C(NCCN(C)C)=C(C[C@@H](C)C[C@H](OC)[C@H](O)[C@@H](C)/C=C(\C)[C@@H]1OC(N)=O)C2=O` y

Entry to check: `OCCn1cc(-c2cnc3nnn(Cc4ccc5ncccc5c4)c3n2)cn1` y

Entry to check: `COc1cc2c(NC3CCN(C4CCCCC4)CC3)nc(N3CCCN(C(C)C)CC3)nc2cc1OCCCN1CCCCC1` y

Entry to check: `C[C@@H]1CN(CC(=O)Nc2ccc3c(c2)Cc2cccc(-c4cc(=O)cc(N5CCOCC5)o4)c2S3)C[C@H](C)O1` y

Entry to check: `OCCn1cc(-c2ccc3c(c2)CC/C3=N\O)c(-c2ccncc2)n1` y

Entry to check: `NC1(c2ccc(-c3nc4ccn5c(=O)[nH]nc5c4cc3-c3ccccc3)cc2)CCC1` n

Entry to check: `O=C(Nc1cccc(Nc2ncc(Br)c(NCCc3c[nH]cn3)n2)c1)N1CCCC1` n

Entry to check: `O=C(/C=C/c1cccnc1)NCCCCC1CCN(C(=O)c2ccccc2)CC1` n
